Tested on: Angiotensin-converting enzyme (Oryctolagus cuniculus)
Sequence (P12822 whole entry): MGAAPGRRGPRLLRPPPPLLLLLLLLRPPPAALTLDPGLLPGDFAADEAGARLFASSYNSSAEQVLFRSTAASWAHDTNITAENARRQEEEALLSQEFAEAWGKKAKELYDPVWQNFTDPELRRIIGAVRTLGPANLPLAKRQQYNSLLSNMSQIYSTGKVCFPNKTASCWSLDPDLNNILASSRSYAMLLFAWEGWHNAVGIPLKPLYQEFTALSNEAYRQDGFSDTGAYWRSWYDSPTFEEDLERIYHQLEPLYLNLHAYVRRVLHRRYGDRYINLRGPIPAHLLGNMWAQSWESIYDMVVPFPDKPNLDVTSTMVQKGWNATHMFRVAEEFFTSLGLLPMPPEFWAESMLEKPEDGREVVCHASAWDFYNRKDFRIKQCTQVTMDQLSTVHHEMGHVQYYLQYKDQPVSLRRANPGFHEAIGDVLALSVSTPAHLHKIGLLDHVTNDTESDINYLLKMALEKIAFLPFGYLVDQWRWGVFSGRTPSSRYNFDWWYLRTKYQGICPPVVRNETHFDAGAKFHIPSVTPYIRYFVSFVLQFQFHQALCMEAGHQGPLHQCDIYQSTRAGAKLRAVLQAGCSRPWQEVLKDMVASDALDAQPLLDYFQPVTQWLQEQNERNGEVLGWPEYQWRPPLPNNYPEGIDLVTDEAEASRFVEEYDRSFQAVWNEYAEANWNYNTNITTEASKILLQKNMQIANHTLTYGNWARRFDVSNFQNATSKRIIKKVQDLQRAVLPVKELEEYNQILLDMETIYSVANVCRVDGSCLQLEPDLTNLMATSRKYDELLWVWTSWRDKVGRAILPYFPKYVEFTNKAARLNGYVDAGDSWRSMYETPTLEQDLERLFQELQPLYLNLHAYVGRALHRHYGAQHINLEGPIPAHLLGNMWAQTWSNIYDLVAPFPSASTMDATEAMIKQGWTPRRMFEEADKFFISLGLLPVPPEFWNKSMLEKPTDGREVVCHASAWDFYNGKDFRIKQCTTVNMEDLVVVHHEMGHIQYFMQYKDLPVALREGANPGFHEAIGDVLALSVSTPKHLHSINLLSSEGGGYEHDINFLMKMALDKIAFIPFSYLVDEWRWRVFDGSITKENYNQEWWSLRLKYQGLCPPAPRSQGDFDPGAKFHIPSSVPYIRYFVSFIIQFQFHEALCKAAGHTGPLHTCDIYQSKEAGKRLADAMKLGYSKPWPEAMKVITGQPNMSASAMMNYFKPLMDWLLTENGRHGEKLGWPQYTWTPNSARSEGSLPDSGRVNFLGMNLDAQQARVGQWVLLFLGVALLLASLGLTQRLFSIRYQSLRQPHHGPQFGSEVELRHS
Protocol: Inhibitory activity against rabbit lung angiotensin-converting enzyme (ACE)
pIC50: −log10 of the molar value.
The following compounds are listed with their measured pIC50 values.
Quantity: pIC50

>>> print(df.to_string())
                               input_smiles  result
0  C[C@H](NC(=O)[C@@H](CC(=O)NO)Cc1ccccc1)C(=O)O  < 5.00
1  O=C(C[C@@H](Cc1ccccc1)C(=O)N1CCC[C@@H]1C(=O)O)NO  < 4.00
2  O=C(C[C@@H](Cc1ccccc1)C(=O)N1CCC[C@H]1C(=O)O)NO    5.52
